The reported measurements were obtained from the supplement of paper PMC10567573.

Listing of entries alongside the reported protein stability index.
B1: MFF (parent)
chain: YTEGISQRMRVPEKLKVAPPNADL

Variants of: B1
Assay: protein stability index of a GFP-peptide fusion (GPS, HEK-293T) (PSI 1-6); higher = more stable;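 further: lentivirally expressed fusions sorted by FACS into six bins by GFP to DsRed ratio, PSI derived from sequencing read proportions per bin multiplied by bin number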
Settings: c terminus: a fixed tail appended
Would you mind answering with just the numeric figure?

Example variants with recorded protein stability index:
[
  {
    "Variant Designation": "K14Q",
    "protein stability index": 3.41
  },
  {
    "Variant Designation": "V17Y",
    "protein stability index": 2.3
  },
  {
    "Variant Designation": "P12E",
    "protein stability index": 2.69
  }
]

Recorded result, A18E , protein stability index: 3.03

Sample E3N ; protein stability index observed: 3.3

Looking up K16I , I see its protein stability index listed as 3.23

Query N21Y yields protein stability index of 2.5

Quick note, protein stability index for P20H landed at 2.69

Notebook: A22I , protein stability index read as 2.45

A18D yielded protein stability index of 3.19

Noted for V11E : its protein stability index reads 2.84

According to the records, this variant D23H displays protein stability index of 2.95
